Where these numbers come from: ChEMBL document CHEMBL1932988

MFC overview
System: Candida albicans
Assay: Antifungal activity against Candida albicans MTCC 227 after 48 hrs by tube dilution method hrs followed by subculturing
Format: functional

compound	MFC
CCOC(=O)C1=C(C)NC(=O)NC1c1cn(C(=O)CNc2cccc([N+](=O)[O-])c2)c2ccccc12 (stereo not given)	>0.1 uM/ml
CCOC(=O)C1=C(C)NC(=S)NC1c1cn(C(=O)CNc2ccc([N+](=O)[O-])cc2)c2ccccc12 (stereo not given)	0.1 uM/ml
CCOC(=O)C1=C(C)NC(=S)NC1c1cn(C(=O)CNc2ccccc2)c2ccccc12 (stereo not given)	>0.11 uM/ml
CCOC(=O)C1=C(C)NC(=O)NC1c1cn(C(=O)CNc2ccc([N+](=O)[O-])cc2Cl)c2ccccc12 (stereo not given)	>0.1 uM/ml
CCOC(=O)C1=C(C)NC(=S)NC1c1cn(C(=O)CNc2ccccc2N)c2ccccc12 (stereo not given)	>0.11 uM/ml

----------
Test system: Bacillus subtilis
Experiment: Antibacterial activity against Bacillus subtilis MTCC 2063 after 24 hrs by tube dilution method hrs followed by subculturing
Type: functional
parameter_measured: MBC

compound	parameter_measured	value
CCOC(=O)C1=C(C)NC(=O)NC1c1cn(C(=O)CNc2ccc(Cl)cc2)c2ccccc12 (stereo not given)	MBC	>0.11 uM/ml
CCOC(=O)C1=C(C)NC(=S)NC1c1cn(C(=O)CNc2cccc([N+](=O)[O-])c2)c2ccccc12 (stereo not given)	MBC	>0.1 uM/ml
CCOC(=O)C1=C(C)NC(=O)NC1c1cn(C(=O)CNc2ccccc2N)c2ccccc12 (stereo not given)	MBC	>0.11 uM/ml
CCOC(=O)C1=C(C)NC(=S)NC1c1cn(C(=O)CNc2ccc([N+](=O)[O-])cc2C)c2ccccc12 (stereo not given)	MBC	>0.1 uM/ml
CCn1cc(C(=O)O)c(=O)c2cc(F)c(N3CCNCC3)cc21 [NORFLOXACIN]	MBC	0.019 uM/ml

----------
Test system: HCT-116
Test: cells
Settings: Homo sapiens, HCT-116, 72 h
// NB: equality with 100 µg/mL counts as Condition not met; only IC50 strictly below is Condition met

compound	class_label
CCOC(=O)C1=C(C)NC(=O)NC1c1cn(C(=O)CNc2ccccc2[N+](=O)[O-])c2ccccc12 (stereo not given)	Condition not met
CCOC(=O)C1=C(C)NC(=S)NC1c1cn(C(=O)CNc2ccc([N+](=O)[O-])c(Cl)c2)c2ccccc12 (stereo not given)	Condition met
CCOC(=O)C1=C(C)NC(=O)NC1c1cn(C(=O)CNc2ccc([N+](=O)[O-])cc2Cl)c2ccccc12 (stereo not given)	Condition met
CCOC(=O)C1=C(C)NC(=S)NC1c1cn(C(=O)CNc2cccc([N+](=O)[O-])c2)c2ccccc12 (stereo not given)	Condition not met
CCOC(=O)C1=C(C)NC(=O)NC1c1cn(C(=O)CNc2ccccc2N)c2ccccc12 (stereo not given)	Condition not met

----------
Test: Partition coefficient, log P of the compound
Assay type: physicochemical
Details: octanol/water

compound	logP
CCOC(=O)C1=C(C)NC(=S)NC1c1cn(C(=O)CNc2ccc([N+](=O)[O-])cc2C)c2ccccc12 (configuration not stated)	3.34
CCOC(=O)C1=C(C)NC(=O)NC1c1cn(C(=O)CNc2cccc([N+](=O)[O-])c2)c2ccccc12 (configuration not stated)	1.48
CCOC(=O)C1=C(C)NC(=O)NC1c1cn(C(=O)CNc2ccccc2[N+](=O)[O-])c2ccccc12 (configuration not stated)	1.48
CCOC(=O)C1=C(C)NC(=S)NC1c1cn(C(=O)CNc2ccc([N+](=O)[O-])cc2)c2ccccc12 (configuration not stated)	2.88
CCOC(=O)C1=C(C)NC(=S)NC1c1cn(C(=O)CNc2cccc([N+](=O)[O-])c2)c2ccccc12 (configuration not stated)	2.88
CCOC(=O)C1=C(C)NC(=S)NC1c1cn(C(=O)CNc2ccccc2[N+](=O)[O-])c2ccccc12 (configuration not stated)	2.88
CCOC(=O)C1=C(C)NC(=O)NC1c1cn(C(=O)CNc2ccc([N+](=O)[O-])cc2C)c2ccccc12 (configuration not stated)	1.94
